- ASSAY_COMMENT: Cytotoxicity against human HepG2(2.2.15) cells
- Assay type: cell-based

# ENTRY_SMILES, CC50
data = [
    ("C[C@H](C[C@H](OC(=O)/C=C/c1ccccc1Cl)[C@@H](OC(=O)/C=C/c1ccccc1Cl)C(C)(C)O)C1=C2C[C@H](OC(=O)/C=C/c3ccccc3Cl)[C@H]3[C@@]4(C)CCC(=O)C(C)(C)[C@@H]4CC[C@]3(C)[C@@]2(C)CC1", "> 1300 µM"),
    ("C=C(C)[C@H](OC(=O)COC(C)=O)[C@H](C[C@@H](C)[C@]12CC[C@@]3(C)[C@@]1(C[C@H](OC(=O)COC(C)=O)[C@H]1[C@@]4(C)CCC(=O)C(C)(C)[C@@H]4CC[C@@]13C)O2)OC(=O)COC(C)=O", "> 1600 µM"),
    ("CCC(CC)C(=O)O[C@@H](C[C@@H](C)C1=C2C[C@H](OC(=O)C(CC)CC)[C@H]3[C@@]4(C)CCC(=O)C(C)(C)[C@@H]4CC[C@]3(C)[C@@]2(C)CC1)[C@@H](OC(=O)C(CC)CC)C(C)(C)O", "> 1100 µM"),
    ("C[C@H](C[C@H](OC(=O)CN1C(=O)c2ccccc2C1=O)[C@@H](OC(=O)CN1C(=O)c2ccccc2C1=O)C(C)(C)O)C1=C2C[C@H](OC(=O)CN3C(=O)c4ccccc4C3=O)[C@H]3[C@@]4(C)CCC(=O)C(C)(C)[C@@H]4CC[C@]3(C)[C@@]2(C)CC1", "> 1500 µM"),
    ("CC(C)CCC(=O)O[C@@H](C[C@@H](C)C1=C2C[C@H](OC(=O)CCC(C)C)[C@H]3[C@@]4(C)CCC(=O)C(C)(C)[C@@H]4CC[C@]3(C)[C@@]2(C)CC1)[C@@H](OC(=O)CCC(C)C)C(C)(C)O", "> 900 µM"),
    ("COCC(=O)O[C@@H](C[C@@H](C)C1=C2C[C@H](OC(=O)COC)[C@H]3[C@@]4(C)CCC(=O)C(C)(C)[C@@H]4CC[C@]3(C)[C@@]2(C)CC1)[C@@H](OC(=O)COC)C(C)(C)OC(=O)COC", "> 2500 µM"),
    ("CC(C)CC(=O)O[C@@H](C[C@@H](C)C1=C2C[C@H](OC(=O)CC(C)C)[C@H]3[C@@]4(C)CCC(=O)C(C)(C)[C@@H]4CC[C@]3(C)[C@@]2(C)CC1)[C@@H](OC(=O)CC(C)C)C(C)(C)O", "> 1200 µM"),
    ("C[C@H](C[C@H](OC(=O)CCC1CCCCC1)[C@@H](OC(=O)CCC1CCCCC1)C(C)(C)O)C1=C2C[C@H](OC(=O)CCC3CCCCC3)[C@H]3[C@@]4(C)CCC(=O)C(C)(C)[C@@H]4CC[C@]3(C)[C@@]2(C)CC1", "> 810 µM"),
    ("C[C@H](C[C@H](OC(=O)C1CCCC1)[C@@H](OC(=O)C1CCCC1)C(C)(C)O)C1=C2C[C@H](OC(=O)C3CCCC3)[C@H]3[C@@]4(C)CCC(=O)C(C)(C)[C@@H]4CC[C@]3(C)[C@@]2(C)CC1", "> 1100 µM"),
    ("CCOCC(=O)O[C@@H](C[C@@H](C)C1=C2C[C@H](OC(=O)COCC)[C@H]3[C@@]4(C)CCC(=O)C(C)(C)[C@@H]4CC[C@]3(C)[C@@]2(C)CC1)[C@@H](OC(=O)COCC)C(C)(C)O", "> 2600 µM"),
    ("CCOCC(=O)O[C@@H](C[C@@H](C)C1=C2C[C@H](OC(=O)COCC)[C@H]3[C@@]4(C)CCC(=O)C(C)(C)[C@@H]4CC[C@]3(C)[C@@]2(C)CC1)[C@@H](OC(=O)COCC)C(C)(C)OC(=O)COCC", "> 2300 µM"),
    ("C[C@H](C[C@H](OC(=O)c1ccccc1I)[C@@H](OC(=O)c1ccccc1I)C(C)(C)O)C1=C2C[C@H](OC(=O)c3ccccc3I)[C@H]3[C@@]4(C)CCC(=O)C(C)(C)[C@@H]4CC[C@]3(C)[C@@]2(C)CC1", "> 1500 µM"),
    ("C[C@H](C[C@H](OC(=O)c1ccc(Br)cc1)[C@@H](OC(=O)c1ccc(Br)cc1)C(C)(C)O)C1=C2C[C@H](OC(=O)c3ccc(Br)cc3)[C@H]3[C@@]4(C)CCC(=O)C(C)(C)[C@@H]4CC[C@]3(C)[C@@]2(C)CC1", "650 µM"),
    ("C=C(C)[C@H](OC(=O)CC(C)C)[C@H](C[C@@H](C)C1=C2C[C@H](OC(=O)CC(C)C)[C@H]3[C@@]4(C)CCC(=O)C(C)(C)[C@@H]4CC[C@]3(C)[C@@]2(C)CC1)OC(=O)CC(C)C", "> 1200 µM"),
    ("C/C=C/C(=O)O[C@@H](C[C@@H](C)C1=C2C[C@H](OC(=O)/C=C/C)[C@H]3[C@@]4(C)CCC(=O)C(C)(C)[C@@H]4CC[C@]3(C)[C@@]2(C)CC1)[C@@H](OC(=O)/C=C/C)C(C)(C)O", "> 850 µM"),
    ("C=C(C)[C@H](OC(=O)COC(C)=O)[C@H](C[C@@H](C)C1=C2C[C@H](OC(=O)COC(C)=O)[C@H]3[C@@]4(C)CCC(=O)C(C)(C)[C@@H]4CC[C@]3(C)[C@@]2(C)CC1)OC(=O)COC(C)=O", "< 30 µM"),
]

----------
Reported CC50 values for the following compounds.
- ASSAY_COMMENT: Cytotoxicity against human HepG2(2.2.15) cells
- Type: cell-based
MEASURED_METRIC: CC50

# ENTRY_SMILES, VALUE
data = [
    ("C[C@H](C[C@H](OC(=O)CNC(=O)OC(C)(C)C)[C@@H](OC(=O)CNC(=O)OC(C)(C)C)C(C)(C)O)C1=C2C[C@H](OC(=O)CNC(=O)OC(C)(C)C)[C@H]3[C@@]4(C)CCC(=O)C(C)(C)[C@@H]4CC[C@]3(C)[C@@]2(C)CC1", "> 1500 µM"),
    ("COCC(=O)O[C@@H](C[C@@H](C)C1=C2C[C@H](OC(=O)COC)[C@H]3[C@@]4(C)CCC(=O)C(C)(C)[C@@H]4CC[C@]3(C)[C@@]2(C)CC1)[C@@H](OC(=O)COC)C(C)(C)O", "400 µM"),
]

----------
- ASSAY_COMMENT: Cytotoxicity against human HepG2(2.2.15) cells
- Type: cell-based
MEASURED_METRIC: CC50

# ENTRY_SMILES, MEASURED_METRIC, VALUE
rows = [
    ("CCOCC(=O)O[C@@H](C[C@@H](C)[C@]12CC[C@@]3(C)[C@@]1(C[C@H](OC(=O)COCC)[C@H]1[C@@]4(C)CCC(=O)C(C)(C)[C@@H]4CC[C@@]13C)O2)[C@@H](OC(=O)COCC)C(C)(C)O", "CC50", "250 µM"),
    ("CC(=O)NCC(=O)O[C@@H](C[C@@H](C)C1=C2C[C@H](OC(=O)CNC(C)=O)[C@H]3[C@@]4(C)CCC(=O)C(C)(C)[C@@H]4CC[C@]3(C)[C@@]2(C)CC1)[C@@H](OC(=O)CNC(C)=O)C(C)(C)O", "CC50", "270 µM"),
    ("C[C@H](C[C@H](OC(=O)c1ccc(Cl)cc1Cl)[C@@H](OC(=O)c1ccc(Cl)cc1Cl)C(C)(C)O)C1=C2C[C@H](OC(=O)c3ccc(Cl)cc3Cl)[C@H]3[C@@]4(C)CCC(=O)C(C)(C)[C@@H]4CC[C@]3(C)[C@@]2(C)CC1", "CC50", "> 1200 µM"),
    ("CCCCC(=O)O[C@@H](C[C@@H](C)C1=C2C[C@H](OC(=O)CCCC)[C@H]3[C@@]4(C)CCC(=O)C(C)(C)[C@@H]4CC[C@]3(C)[C@@]2(C)CC1)[C@@H](OC(=O)CCCC)C(C)(C)O", "CC50", "> 1300 µM"),
    ("C[C@H](C[C@H](OC(=O)Cc1ccc([N+](=O)[O-])cc1)[C@@H](OC(=O)Cc1ccc([N+](=O)[O-])cc1)C(C)(C)O)C1=C2C[C@H](OC(=O)Cc3ccc([N+](=O)[O-])cc3)[C@H]3[C@@]4(C)CCC(=O)C(C)(C)[C@@H]4CC[C@]3(C)[C@@]2(C)CC1", "CC50", "> 1000 µM"),
    ("C=C(C)[C@H](OC(=O)COCC)[C@H](C[C@@H](C)[C@]12CC[C@@]3(C)[C@@]1(C[C@H](OC(=O)COCC)[C@H]1[C@@]4(C)CCC(=O)C(C)(C)[C@@H]4CC[C@@]13C)O2)OC(=O)COCC", "CC50", "> 1800 µM"),
    ("C=C(C)[C@H](OC(=O)COC)[C@H](C[C@@H](C)[C@]12CC[C@@]3(C)[C@@]1(C[C@H](OC(=O)COC)[C@H]1[C@@]4(C)CCC(=O)C(C)(C)[C@@H]4CC[C@@]13C)O2)OC(=O)COC", "CC50", "> 1300 µM"),
    ("C[C@H](C[C@H](OC(=O)C1CC1)[C@@H](OC(=O)C1CC1)C(C)(C)O)C1=C2C[C@H](OC(=O)C3CC3)[C@H]3[C@@]4(C)CCC(=O)C(C)(C)[C@@H]4CC[C@]3(C)[C@@]2(C)CC1", "CC50", "> 1000 µM"),
    ("C=C(C)[C@H](OC(=O)COC)[C@H](C[C@@H](C)C1=C2C[C@H](OC(=O)COC)[C@H]3[C@@]4(C)CCC(=O)C(C)(C)[C@@H]4CC[C@]3(C)[C@@]2(C)CC1)OC(=O)COC", "CC50", "> 2800 µM"),
]
